# study target: LPA1 receptor (Cricetulus griseus)
# Sequence (G3HUC7 1-364): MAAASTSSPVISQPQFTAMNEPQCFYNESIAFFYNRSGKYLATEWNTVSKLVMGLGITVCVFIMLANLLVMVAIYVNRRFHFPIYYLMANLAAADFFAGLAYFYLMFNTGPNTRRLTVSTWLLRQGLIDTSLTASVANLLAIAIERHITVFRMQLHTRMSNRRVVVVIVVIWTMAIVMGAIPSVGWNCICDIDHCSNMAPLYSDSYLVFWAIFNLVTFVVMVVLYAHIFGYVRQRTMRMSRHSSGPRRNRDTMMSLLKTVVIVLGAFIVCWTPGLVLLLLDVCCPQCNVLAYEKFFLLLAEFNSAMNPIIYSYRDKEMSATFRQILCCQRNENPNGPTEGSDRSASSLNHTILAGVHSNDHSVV
# condition notes: read-out: IC50, block of LPA1-mediated signal; CHOK1/Gα15/GCaMP6s-CAAX, EC80 agonist
metric: IC50
# output: numeric value plus its unit

## Task I'm curious: which IC50 was measured for Cc1noc(-c2ccc(-c3ccc(CC(=O)O)cc3)cc2)c1NC(=O)O[C@H](C)c1ccccc1 [AM095] tested on LPA1 receptor (Cricetulus griseus)?
## Result 240 nM

###

# study target: CaV3.3 (Homo sapiens)
# Sequence (Q9P0X4 whole entry): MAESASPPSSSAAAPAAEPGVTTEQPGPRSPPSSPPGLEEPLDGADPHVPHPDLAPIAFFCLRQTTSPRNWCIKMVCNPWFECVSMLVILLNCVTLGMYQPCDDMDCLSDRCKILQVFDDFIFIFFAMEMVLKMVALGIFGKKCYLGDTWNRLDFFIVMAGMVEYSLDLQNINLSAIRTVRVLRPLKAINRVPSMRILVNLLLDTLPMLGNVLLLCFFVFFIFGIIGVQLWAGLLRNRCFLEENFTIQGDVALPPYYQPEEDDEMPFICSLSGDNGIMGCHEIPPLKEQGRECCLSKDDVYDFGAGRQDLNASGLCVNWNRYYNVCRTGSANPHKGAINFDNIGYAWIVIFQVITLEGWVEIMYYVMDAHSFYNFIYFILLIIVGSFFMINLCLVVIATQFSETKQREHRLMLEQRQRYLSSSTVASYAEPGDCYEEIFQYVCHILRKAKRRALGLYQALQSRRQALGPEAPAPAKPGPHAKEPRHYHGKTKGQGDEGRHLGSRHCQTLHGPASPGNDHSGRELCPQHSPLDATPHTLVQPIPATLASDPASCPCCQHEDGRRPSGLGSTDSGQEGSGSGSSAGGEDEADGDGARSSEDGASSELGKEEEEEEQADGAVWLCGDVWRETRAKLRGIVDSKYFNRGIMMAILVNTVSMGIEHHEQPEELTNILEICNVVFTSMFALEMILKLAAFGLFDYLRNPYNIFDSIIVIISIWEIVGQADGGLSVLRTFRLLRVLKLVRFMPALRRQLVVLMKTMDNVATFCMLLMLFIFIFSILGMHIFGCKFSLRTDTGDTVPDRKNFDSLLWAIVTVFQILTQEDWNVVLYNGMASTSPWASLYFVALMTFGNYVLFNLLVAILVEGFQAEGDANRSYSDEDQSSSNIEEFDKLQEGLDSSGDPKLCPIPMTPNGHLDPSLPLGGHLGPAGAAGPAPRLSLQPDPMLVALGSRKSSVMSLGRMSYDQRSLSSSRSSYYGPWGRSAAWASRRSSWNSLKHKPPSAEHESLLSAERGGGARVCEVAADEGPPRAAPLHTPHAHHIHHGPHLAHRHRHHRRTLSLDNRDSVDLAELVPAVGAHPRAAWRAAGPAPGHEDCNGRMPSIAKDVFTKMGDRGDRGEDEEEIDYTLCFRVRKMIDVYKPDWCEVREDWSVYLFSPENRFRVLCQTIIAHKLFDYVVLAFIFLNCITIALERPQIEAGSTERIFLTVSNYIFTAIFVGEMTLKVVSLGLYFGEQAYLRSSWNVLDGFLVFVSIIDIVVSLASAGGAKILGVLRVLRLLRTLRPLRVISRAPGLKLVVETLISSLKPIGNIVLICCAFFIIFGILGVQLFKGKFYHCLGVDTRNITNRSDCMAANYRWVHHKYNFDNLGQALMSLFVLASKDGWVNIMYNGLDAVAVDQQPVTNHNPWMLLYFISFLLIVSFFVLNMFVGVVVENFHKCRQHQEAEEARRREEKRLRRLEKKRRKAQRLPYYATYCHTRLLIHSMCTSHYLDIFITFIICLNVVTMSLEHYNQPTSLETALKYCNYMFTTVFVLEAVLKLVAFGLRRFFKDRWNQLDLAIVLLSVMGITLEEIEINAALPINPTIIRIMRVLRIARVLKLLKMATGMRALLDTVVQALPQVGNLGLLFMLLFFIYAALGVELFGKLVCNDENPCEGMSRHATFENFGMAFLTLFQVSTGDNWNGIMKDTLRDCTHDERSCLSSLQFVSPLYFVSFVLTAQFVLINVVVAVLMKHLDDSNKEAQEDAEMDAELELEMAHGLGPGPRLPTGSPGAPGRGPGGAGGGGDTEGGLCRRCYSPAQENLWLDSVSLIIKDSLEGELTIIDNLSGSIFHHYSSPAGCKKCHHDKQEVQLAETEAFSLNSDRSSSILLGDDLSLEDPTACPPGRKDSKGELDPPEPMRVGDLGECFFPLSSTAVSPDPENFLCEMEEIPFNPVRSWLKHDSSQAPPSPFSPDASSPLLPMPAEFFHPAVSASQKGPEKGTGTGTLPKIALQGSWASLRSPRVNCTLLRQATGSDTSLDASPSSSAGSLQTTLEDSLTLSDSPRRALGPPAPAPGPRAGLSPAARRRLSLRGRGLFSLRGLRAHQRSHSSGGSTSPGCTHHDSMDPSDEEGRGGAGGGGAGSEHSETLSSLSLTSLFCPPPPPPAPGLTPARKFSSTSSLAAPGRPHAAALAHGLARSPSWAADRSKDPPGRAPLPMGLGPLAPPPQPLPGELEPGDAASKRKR
# assay notes: cell-based
# Type: cell-based
Structures can show the parent of a compound that is named as a salt.
metric: pIC50
Give bare numbers, as −log10 of the molar value.

# example entries with known answers
>>> obs_value("Fc1ccc(C(c2ccc(F)cc2)N2CCN(C/C=C/c3ccccc3)CC2)cc1 [flunarizine dihydrochloride]")
5.92
>>> obs_value("CN(C)C(=O)C(CCN1CCC(O)(c2ccc(Cl)cc2)CC1)(c1ccccc1)c1ccccc1 [loperamide hydrochloride]")
5.89
>>> obs_value("COC(=O)C1=C(C)NC(C)=C(C(=O)OCCN(C)Cc2ccccc2)C1c1cccc([N+](=O)[O-])c1 (stereo not drawn) [nicardipine hydrochloride]")
5.68

Hi, could you look up pIC50 for each item in my list?
1. CC1=C(C(=O)OC(C)C)C(c2cccc([N+](=O)[O-])c2)C(C(=O)OC2CN(C(c3ccccc3)c3ccccc3)C2)=C(N)N1 (stereo not drawn) [azelnidipine]
2. CC(C)c1ccc(CC(=O)N[C@H](C)c2ccc(OCC(F)(F)F)cn2)cc1 [mk-8998]

## Result
1. 4.59
2. 7.43

Field: pIC50. Fill in for each record below.
1. CCOC(=O)C1=C(C)NC(C)=C(C(=O)OC)C1c1cccc([N+](=O)[O-])c1 (stereo not drawn) [nitrendipine]
2. COC(=O)C1=C(C)NC(C)=C(C(=O)OC(C)(C)CN(C)CCC(c2ccccc2)c2ccccc2)C1c1cccc([N+](=O)[O-])c1 (stereo not drawn) [lercanidipine hydrochloride]

## Result
1: 4.74; 2: 6.39

State the recorded pIC50 for every item in the following list.
1. CCOC(=O)Nc1ccc(NCc2ccc(F)cc2)cc1N [retigabine]
2. CCOC(=O)Nc1ccc(NCc2ccc(F)cc2)nc1N [flupirtine maleate]

## Result
1. 5.03
2. 5.46
